Entry source: the supplement of paper PMC10567573

B1: FUT8 (parent)
chain: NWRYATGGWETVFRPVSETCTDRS

Variants of: B1
protocolNotes: protein stability index of a GFP-peptide fusion (GPS, HEK-293T) (PSI 1-6); higher = more stable;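 also: lentivirally expressed fusions sorted by FACS into six bins by GFP to DsRed ratio, PSI derived from sequencing read proportions per bin multiplied by bin number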
statedConditions: c terminus: a fixed tail appended
protein stability index of 2 or higher: y. Under 2: n.

Example entries begin here.
primarySequence: NWRYATGGWETVFRPVSFTCTDRS
className: y

primarySequence: NWRYATGGWETVFRPVSETCTDFS
className: n

primarySequence: NWRYATGGWERVFRPVSETCTDRS
className: y

primarySequence: NWRYATGGWETVFRPTSETCTDRS
className: n

primarySequence: NWRYATGGWELVFRPVSETCTDRS
className: y

primarySequence: NWRYATGGWETVFRPVSETCTDAS
className: y

primarySequence: NWRYQTGGWETVFRPVSETCTDRS
className: y

primarySequence: NWRMATGGWETVFRPVSETCTDRS
className: y

primarySequence: NWRNATGGWETVFRPVSETCTDRS
className: y

primarySequence: NWYYATGGWETVFRPVSETCTDRS
className: n

Q. Decide: protein stability index of NWRYATPGWETVFRPVSETCTDRS >= 2?
A. y

Q. Decide: is the reported value of protein stability index for NWRYATGGWETVFRPVSETCKDRS equal to or greater than 2?
A. y

Q. Could you verify whether the entry NWRYATGGWETVFRPVSETCTDRN shows protein stability index of no less than 2?
A. y

Q. State whether the measured protein stability index reaches 2, counting equality as reaching it, for NWRYHTGGWETVFRPVSETCTDRS
A. y

Q. Reported protein stability index at or above 2? NWRYATGGWETVFRPVSETCTDSS
A. n

Q. Is protein stability index for NWRYATGAWETVFRPVSETCTDRS at or above 2?
A. n

Q. Check if protein stability index >= 2 (inclusive). Item: NFRYATGGWETVFRPVSETCTDRS
A. y

Q. For this variant, is measured protein stability index 2 or higher? NGRYATGGWETVFRPVSETCTDRS
A. y

Q. # bool: protein stability index of NWRYATGGWETVFRPVSVTCTDRS >= 2
A. y
